Answer each item with its documented pKd.
Biological target: T1, EsCas13d, nuclease-dead (Eubacterium siraeum, UniProt B0MS50, R295A;H300A;R849A;H854A)
T1 sequence: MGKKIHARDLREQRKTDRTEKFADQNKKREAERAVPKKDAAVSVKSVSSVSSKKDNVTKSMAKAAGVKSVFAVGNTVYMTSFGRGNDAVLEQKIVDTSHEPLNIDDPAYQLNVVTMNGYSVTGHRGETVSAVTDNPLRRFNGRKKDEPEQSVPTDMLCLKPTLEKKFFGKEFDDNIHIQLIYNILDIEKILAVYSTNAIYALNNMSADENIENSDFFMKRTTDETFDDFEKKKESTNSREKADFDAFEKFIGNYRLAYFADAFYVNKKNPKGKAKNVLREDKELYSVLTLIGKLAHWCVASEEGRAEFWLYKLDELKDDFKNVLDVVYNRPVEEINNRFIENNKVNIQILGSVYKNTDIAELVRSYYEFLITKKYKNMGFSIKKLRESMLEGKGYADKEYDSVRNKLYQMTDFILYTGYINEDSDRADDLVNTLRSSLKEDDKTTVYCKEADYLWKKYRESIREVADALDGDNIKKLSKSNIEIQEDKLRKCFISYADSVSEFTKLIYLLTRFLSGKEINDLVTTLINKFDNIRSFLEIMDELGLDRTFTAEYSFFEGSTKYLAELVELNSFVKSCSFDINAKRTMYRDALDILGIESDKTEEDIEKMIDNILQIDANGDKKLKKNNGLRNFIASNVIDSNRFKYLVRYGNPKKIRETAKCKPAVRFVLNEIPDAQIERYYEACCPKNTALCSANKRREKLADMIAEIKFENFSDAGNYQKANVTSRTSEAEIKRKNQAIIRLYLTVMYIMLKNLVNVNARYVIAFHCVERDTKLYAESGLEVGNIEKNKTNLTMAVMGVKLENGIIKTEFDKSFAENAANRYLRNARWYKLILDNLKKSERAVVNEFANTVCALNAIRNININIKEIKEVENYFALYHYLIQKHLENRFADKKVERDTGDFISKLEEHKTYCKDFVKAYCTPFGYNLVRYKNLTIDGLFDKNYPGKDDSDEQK
Assay: crRNA (strand 1, pre-loaded); Mg2+; 40 mM Tris-HCl pH 7.5, 150 mM NaCl, 6 mM MgCl2, 1 mM DTT, 0.1% Tween-20, 0.2 mg/ml BSA; 25 C; 10 min per concentration, then washed
Conditions: tags: His6-TwinStrep-SUMO cleaved; N-terminal SNAP kept (SNAP-Surface 488); label: 3' end held by stalled T7 RNA polymerase
Formally, pKd is defined as -log10 of the concentration c, with c in mol/L.

Req: Note pKd for the binder shown: target 2 MT 5'PFS UUU 3'PFS AUU (mixed) RNA 1: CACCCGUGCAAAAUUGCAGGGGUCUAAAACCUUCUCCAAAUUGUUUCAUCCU RNA 2: GGGAAUGGAUCCACAUCUACGAAUUCUUUAGGAUGAAACAAUUUGGAGAAGAUUAGAUCGGAAGAGCACACGU
Resp: 8.04

Req: Note down pKd recorded for target 1 complement block 5-10 (mixed) RNA 1: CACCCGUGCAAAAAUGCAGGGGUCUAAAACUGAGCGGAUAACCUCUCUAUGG RNA 2: GGGAAUGGAUCCACAUCUACGAAUUCGUACCAUAGAGAGGUAUAGGCCUCACCGAGAUCGGAAGAGCACACGU
Resp: 7.84

Req: Give the measured pKd for target 1 C6G,C7G (mixed) RNA 1: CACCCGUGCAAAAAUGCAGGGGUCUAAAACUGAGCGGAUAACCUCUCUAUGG RNA 2: GGGAAUGGAUCCACAUCUACGAAUUCGUACCAUAGAGAGGUUAUGGGCUCACCGAGAUCGGAAGAGCACACGU
Resp: 7.88

Req: Tell me pKd reported for target 2 MT 5'PFS CUC 3'PFS CUU (mixed) RNA 1: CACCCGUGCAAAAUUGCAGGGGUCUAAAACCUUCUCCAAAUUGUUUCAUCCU RNA 2: GGGAAUGGAUCCACAUCUACGAAUUCCUCAGGAUGAAACAAUUUGGAGAAGCUUAGAUCGGAAGAGCACACGU
Resp: 8.61

Req: Hello, please tell me recorded pKd for this one: target 1 insG 3' of 14,insA 3' of 3 (mixed) RNA 1: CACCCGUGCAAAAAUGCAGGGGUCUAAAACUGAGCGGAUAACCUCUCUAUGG RNA 2: GGGAAUGGAUCCACAUCUACGAAUUCGUACCAUAGAGAGGGUUAUCCGCUACACCGAGAUCGGAAGAGCACACGU
Resp: 7.94

Req: Item target 1 MT 5'PFS UCG 3'PFS CUC (mixed) RNA 1: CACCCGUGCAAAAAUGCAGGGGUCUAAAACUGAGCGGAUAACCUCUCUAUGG RNA 2: GGGAAUGGAUCCACAUCUACGAAUUCUCGCCAUAGAGAGGUUAUCCGCUCACUCAGAUCGGAAGAGCACACGU : provide pKd
Resp: 7.34

Req: Output pKd of target 3 A5G,A18G (mixed) RNA 1: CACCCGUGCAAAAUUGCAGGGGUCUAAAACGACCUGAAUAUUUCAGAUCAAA RNA 2: GGGAAUGGAUCCACAUCUACGAAUUCGUUUUUGGUCUGAAAUAUUCGGGUCUGCAGAUCGGAAGAGCACACGU
Resp: 7.51

Req: Tell me its pKd given target 1 MT 5'PFS CUA 3'PFS UCU (mixed) RNA 1: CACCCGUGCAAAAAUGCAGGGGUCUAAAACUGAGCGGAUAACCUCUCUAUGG RNA 2: GGGAAUGGAUCCACAUCUACGAAUUCCUACCAUAGAGAGGUUAUCCGCUCAUCUAGAUCGGAAGAGCACACGU as the entry.
Resp: 8.31
